TARGET: pro-protein convertase of the subtype nine binding to recombinant LDLR-AB domain (Homo sapiens, UniProt Q8NBP7)
Sequence (Q8NBP7 153-692): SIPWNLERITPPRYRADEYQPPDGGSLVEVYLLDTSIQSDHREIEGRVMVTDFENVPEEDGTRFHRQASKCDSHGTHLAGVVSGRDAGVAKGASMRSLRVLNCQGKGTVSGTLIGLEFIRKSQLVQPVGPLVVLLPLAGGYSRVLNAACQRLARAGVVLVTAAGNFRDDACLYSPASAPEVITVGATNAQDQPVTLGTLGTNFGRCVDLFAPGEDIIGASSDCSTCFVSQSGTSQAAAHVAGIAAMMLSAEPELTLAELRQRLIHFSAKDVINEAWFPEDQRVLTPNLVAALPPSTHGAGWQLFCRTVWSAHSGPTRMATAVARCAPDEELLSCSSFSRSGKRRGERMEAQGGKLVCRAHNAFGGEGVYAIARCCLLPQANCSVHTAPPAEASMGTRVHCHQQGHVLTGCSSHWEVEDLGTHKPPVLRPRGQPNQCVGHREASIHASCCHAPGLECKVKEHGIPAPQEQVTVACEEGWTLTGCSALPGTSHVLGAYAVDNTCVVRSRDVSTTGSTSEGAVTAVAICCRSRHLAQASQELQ
Sequence (Q8NBP7 31-152 partner limits assumed): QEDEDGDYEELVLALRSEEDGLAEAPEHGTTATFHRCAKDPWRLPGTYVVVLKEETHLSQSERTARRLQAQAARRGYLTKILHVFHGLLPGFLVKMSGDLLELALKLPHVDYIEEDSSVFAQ
EXPERIMENT_NOTES: in vitro quantitative solid phase binding assay (ELISA) of the subtype nine pro-protein convertase to immobilized LDLR
CONDITION_DETAILS: Concentration 10 μM
Could you label it Met if measured inhibition at 10 µM is 20% or higher, and Not met otherwise?

CC(=NOCc1ccc(C(F)(F)F)cc1)c1ccc(NCC(=O)NCC2CCOCC2)cc1 [Example 20] ... Met
O=C(COc1ccc(C(Cc2ccccc2)=NOCc2ccc(F)cc2)cc1)NCC1CCOCC1 [Example 35] ... Not met
O=C(COc1ccc(C(Cc2ccccc2)=NOCc2ccc(Cl)cc2)cc1)NCC1CCOCC1 [Example 37] ... Met

Data request: Hi, just wondering whether Cc1cc(C(Cc2ccccc2)=NOCc2ccc(OC(F)(F)F)cc2)ccc1OCC(=O)NCC1CCOCC1 [Example 38] shows inhibition at 10 µM of 20% or higher.
Data returned: Not met
